Origin of the recorded values: ChEMBL document CHEMBL2150924

biological target: Sodium channel protein type 8 subunit alpha (Rattus norvegicus, UniProt O88420); test: Inhibition of rat NaV1.6-mediated current expressed in human HEK293 cells by patch clamp assay
Sequence (O88420 whole entry): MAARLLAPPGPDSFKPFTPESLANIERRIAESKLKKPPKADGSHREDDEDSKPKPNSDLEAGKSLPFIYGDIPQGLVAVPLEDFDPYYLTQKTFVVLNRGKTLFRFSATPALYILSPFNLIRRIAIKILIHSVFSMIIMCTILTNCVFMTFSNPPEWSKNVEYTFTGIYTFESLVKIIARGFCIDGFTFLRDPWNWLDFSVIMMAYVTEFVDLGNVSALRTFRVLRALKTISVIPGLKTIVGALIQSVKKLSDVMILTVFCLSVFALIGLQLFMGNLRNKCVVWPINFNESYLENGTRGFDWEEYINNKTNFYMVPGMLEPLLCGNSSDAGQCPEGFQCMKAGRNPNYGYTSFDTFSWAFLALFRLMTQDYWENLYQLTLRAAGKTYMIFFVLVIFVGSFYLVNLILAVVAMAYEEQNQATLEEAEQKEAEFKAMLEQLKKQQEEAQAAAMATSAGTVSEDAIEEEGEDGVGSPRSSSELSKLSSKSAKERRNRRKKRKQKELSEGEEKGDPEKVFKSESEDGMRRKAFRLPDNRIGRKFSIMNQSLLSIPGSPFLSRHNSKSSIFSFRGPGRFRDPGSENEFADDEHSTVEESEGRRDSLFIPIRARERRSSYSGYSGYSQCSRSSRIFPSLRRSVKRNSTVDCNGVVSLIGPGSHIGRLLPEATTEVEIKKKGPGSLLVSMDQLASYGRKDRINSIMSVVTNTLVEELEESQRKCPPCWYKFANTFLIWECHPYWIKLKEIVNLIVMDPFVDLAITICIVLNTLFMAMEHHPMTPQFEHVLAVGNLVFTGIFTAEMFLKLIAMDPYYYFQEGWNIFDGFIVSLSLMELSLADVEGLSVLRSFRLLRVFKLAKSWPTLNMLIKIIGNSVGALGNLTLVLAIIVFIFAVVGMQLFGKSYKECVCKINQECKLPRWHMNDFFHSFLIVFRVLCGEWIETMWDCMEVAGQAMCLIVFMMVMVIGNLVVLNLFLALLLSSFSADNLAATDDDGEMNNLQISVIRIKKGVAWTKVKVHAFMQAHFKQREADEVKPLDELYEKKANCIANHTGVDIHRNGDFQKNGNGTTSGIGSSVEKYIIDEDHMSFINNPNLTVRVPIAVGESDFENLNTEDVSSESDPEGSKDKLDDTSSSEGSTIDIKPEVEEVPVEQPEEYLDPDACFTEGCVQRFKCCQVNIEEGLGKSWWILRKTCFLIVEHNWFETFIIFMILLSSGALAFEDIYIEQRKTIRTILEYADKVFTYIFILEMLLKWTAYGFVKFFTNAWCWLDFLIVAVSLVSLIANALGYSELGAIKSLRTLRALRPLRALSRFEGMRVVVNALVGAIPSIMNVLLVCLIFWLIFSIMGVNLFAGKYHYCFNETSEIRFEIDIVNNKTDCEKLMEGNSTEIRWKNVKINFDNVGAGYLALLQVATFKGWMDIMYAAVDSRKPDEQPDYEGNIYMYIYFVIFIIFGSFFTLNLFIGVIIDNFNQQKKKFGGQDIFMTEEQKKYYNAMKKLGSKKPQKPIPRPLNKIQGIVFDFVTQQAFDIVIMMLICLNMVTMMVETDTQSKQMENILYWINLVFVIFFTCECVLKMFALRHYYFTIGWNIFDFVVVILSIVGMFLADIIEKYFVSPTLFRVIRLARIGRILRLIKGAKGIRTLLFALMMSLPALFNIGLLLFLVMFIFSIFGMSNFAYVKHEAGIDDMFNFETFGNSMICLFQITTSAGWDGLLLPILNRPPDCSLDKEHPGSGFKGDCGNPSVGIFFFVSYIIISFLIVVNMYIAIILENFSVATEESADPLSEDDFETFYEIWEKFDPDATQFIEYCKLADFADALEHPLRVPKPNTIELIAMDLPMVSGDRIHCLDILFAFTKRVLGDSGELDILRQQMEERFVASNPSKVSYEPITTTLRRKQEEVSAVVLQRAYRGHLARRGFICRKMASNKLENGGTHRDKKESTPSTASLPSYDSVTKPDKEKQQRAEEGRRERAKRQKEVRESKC
Doc: threshold 30 µM (exclusive). Items with IC50 beneath it return class 1; others return class 0.

INSERT INTO results (chemical_smiles, label_class) VALUES
  ('COc1ccc(-c2nc(-c3ccccc3)c[nH]2)cc1', 'class 1'),
  ('c1ccc(OCc2cn(-c3ccccc3)nn2)cc1', 'class 1'),
  ('c1ccc(Cn2cc(-c3ccccc3)nn2)cc1', 'class 0'),
  ('c1ccc(Cn2cc(CCCOc3ccccc3)nn2)cc1', 'class 0'),
  ('c1ccc(CCn2cc(CCCOc3ccccc3)nn2)cc1', 'class 0');

**Q:** Determine if O=C(Cn1cc(CCCOc2ccccc2)nn1)c1ccccc1 shows IC50 strictly lower than 30 µM.
**A:** class 0

---

Each entry below lists one item and its recorded inhibition value.
target: Sodium channel protein type 8 subunit alpha (Rattus norvegicus); experiment: Inhibition of rat NaV1.6-mediated current expressed in human HEK293 cells at 10 uM by patch clamp assay; assay type: cell-based
Reply with just the number (in %).

Look over these answered cases.
INSERT INTO results (chemical_smiles, readout_kind, numeric_result) VALUES
  ('c1ccc(Cn2cc(COc3ccccc3)nn2)cc1', 'inhibition', 11),
  ('c1ccc(-c2cn(-c3ccccc3)nn2)cc1', 'inhibition', 6.2);

inhibition reported for this compound COc1ccc(-c2nc(-c3ccccc3)c[nH]2)cc1 : 21.7

Entry c1ccc(-c2c[nH]c(-c3ccccc3)n2)cc1 , inhibition reported as 16

inhibition reported for this compound c1ccc(OCc2cn(-c3ccccc3)nn2)cc1 : 16

// c1ccc(Cn2cc(-c3ccccc3)nn2)cc1 : inhibition value = 10

Value of inhibition reported for the compound O=C(Cn1cc(CCCOc2ccccc2)nn1)c1ccccc1 is 22.7

---

Recorded inhibition by entry
target: Sodium channel protein type 8 subunit alpha (Rattus norvegicus); assay: Inhibition of rat NaV1.6-mediated current expressed in human HEK293 cells at 10 uM by patch clamp assay; assay type: cell-based
Hi! Could you send only the number? It should be in %, unit omitted.

Log: Sodium channel protein type 8 subunit alpha (Rattus norvegicus), compound c1ccc(CCn2cc(-c3ccccc3)nn2)cc1 , inhibition = 11.5

# inhibition measured on Sodium channel protein type 8 subunit alpha (Rattus norvegicus) for item c1ccc(CCn2cc(COc3ccccc3)nn2)cc1 = 8.9

inhibition for Sodium channel protein type 8 subunit alpha (Rattus norvegicus) with input c1ccc(Cn2cc(CCCOc3ccccc3)nn2)cc1 equals 26

---

molecular target: Sodium channel protein type 8 subunit alpha (Rattus norvegicus) (UniProt O88420); assay: Inhibition of rat NaV1.6-mediated current expressed in human HEK293 cells at 10 uM by patch clamp assay; assay type: cell-based
Sequence (O88420 whole entry): as above
READOUT KIND: inhibition (%)
Form entry: value (%) — number only.

INSERT INTO assay_data (chemical_smiles, display_unit, numeric_result) VALUES
  ('O=C(Cn1cc(COc2ccccc2)nn1)c1ccccc1', '%', 13.6);

inhibition recorded for this molecule, O=C(Cn1cc(-c2ccccc2)nn1)c1ccccc1 , is 3.9

Sample c1ccc(OCCCc2cn(-c3ccccc3)nn2)cc1 ; inhibition observed: 5.9

Item: c1ccc(CCn2cc(CCCOc3ccccc3)nn2)cc1 | inhibition: 22.7
